Sourced from patent US20240025875A1

Measured On: TRα (Homo sapiens)
Construct: 5 μL of 4×TR beta/alfa-LBD; purchased Invitrogen PV4687
Sequence (P10827 163-410 isoform P10827-2 limits assumed, other chains not shown): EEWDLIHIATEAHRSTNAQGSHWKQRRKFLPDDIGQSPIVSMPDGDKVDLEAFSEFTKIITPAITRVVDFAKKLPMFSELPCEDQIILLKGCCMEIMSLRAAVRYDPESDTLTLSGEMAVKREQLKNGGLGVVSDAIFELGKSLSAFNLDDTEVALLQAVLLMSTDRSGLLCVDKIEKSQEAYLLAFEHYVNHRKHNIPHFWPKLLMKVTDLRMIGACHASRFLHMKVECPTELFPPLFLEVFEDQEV
Experiment: LanthaScreen TR-FRET Thyroid Receptor alfa Coactivator Assay (in vitro binding activity)
Condition Context: TR alfa-LBD

# Compound, Op, EC50 / µM
rows = [
    ("Cc1ccc(F)cc1CN1CCc2cc(Oc3c(Cl)cc(-n4nc(C#N)c(=O)[nH]c4=O)cc3Cl)ccc2C1=O [Example 40d]", ">", 100),
    ("O=C1c2ccc(Oc3c(Cl)cc(-n4ncc(=O)[nH]c4=O)cc3Cl)cc2CCN1Cc1cc(F)cc(F)c1 [Example 32]", "=", 0.181),
    ("N#Cc1nn(-c2cc(Cl)c(Oc3ccc4c(c3)CCN(CO)C4=O)c(Cl)c2)c(=O)[nH]c1=O [Example 39]", ">", 100),
    ("O=C1c2ccc(Oc3c(Cl)cc(-n4ncc(=O)[nH]c4=O)cc3Cl)cc2CCN1Cc1ccc(F)cc1 [Example 20]", ">", 100),
    ("O=C1c2ccc(Oc3c(Cl)cc(-n4ncc(=O)[nH]c4=O)cc3Cl)cc2CCN1c1ccccn1 [Example 47]", "=", 0.161),
    ("O=C1c2ccc(Oc3c(Cl)cc(-n4ncc(=O)[nH]c4=O)cc3Cl)cc2CCN1Cc1ccc(F)c(Cl)c1 [Example 35]", "=", 0.092),
    ("O=C1c2ccc(Oc3c(Cl)cc(-n4ncc(=O)[nH]c4=O)cc3Cl)cc2CCN1c1cccc(F)c1 [Example 42]", ">", 100),
]
